Experiment: protease stability score; higher = more stable; yeast display proteolysis, trypsin and chymotrypsin;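 note: relative to predicted unfolded state with 0 unfolded-like and 1 meaning tenfold more protease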
Please use YES whenever protease stability score is not below 2, and NO whenever it is.

Request: Could you please find out whether `SEREKHSKELNEHMIQLFETGDEDLLIRMADPHVRVIQGDKEYHGRHWYEKIFHDFVKQAQNARFEIHDVKIQGEKLIIHGKMEWNGKRHEVEWYFDIVDGRIKEEEIRIR` has protease stability score that meets 2 or exceeds it?
Response: NO

Request: Could you please find out whether `TERDELMKRFAHIFYHWLETGDEESIKKMLDPDTLSIVDGVNLHGRDEHSRWHVELHENLGIDQIHYRLRRVEVQGDKARIDGEEEINGKHVKLRIELEVINGRIKDIRVSVR` has protease stability score that meets 2 or exceeds it?
Response: NO

Request: Could you please find out whether `DEDRRIAEHLIKLYLQSTRTGDENSIRHLMDPNTRVIVGDKDRIGREAAEELLRRVDHLHDYKIEDIRFVGDFIDVEMRVDGEFDGVREHYRVILILFKVDGRWRIHLIEIR` has protease stability score that meets 2 or exceeds it?
Response: NO

Request: Could you please find out whether `DEKDEHMENLMREFMHSTLTGDEELLERMADPHVKVIVNGKELIGRESWRKWLEELEKRFKHAKFIWLLHRVDVQGEKANSDGVRRINFDGVNINLKTHIFIHVVNGKLKEIEIHDK` has protease stability score that meets 2 or exceeds it?
Response: NO

Request: Could you please find out whether `SHEEELEEKIARILLEAWITGDEEFLFRLADPNVKLDIKYGDKRHIHIGREELLKWYRHELERFKNMKIVLHDRHIQGEKVHLHLVMHFNGQRIDVRIEVIIINGRIKHIHIEVDEK` has protease stability score that meets 2 or exceeds it?
Response: YES

Request: Could you please find out whether `DEKEHFAKWFIHVLIRHWYTGDEETTHRLADPNARYEIGDKELIGMDELFRHLEQLRVDSIDYRVEDIRFQGEKIHIHGKIRVEGVVNGQHFHLTFDLILHVEKINGRWHFREMQTR` has protease stability score that meets 2 or exceeds it?
Response: NO

Request: Could you please find out whether `DDEDRKLKHLIELLVHWFLTGDEDALKELADPNTKFDIGDKHYHGMEIVQEIWKRHLEEIRIQHVEIRHVEIQGNKTDITGELHGQIGDKHIRSEVRIHLNIINGRVRSMWFIIH` has protease stability score that meets 2 or exceeds it?
Response: YES

Request: Could you please find out whether `SEDHEFVRFIIEQLLHDLFTGDWRRLLKLFDPNAMIEVGDKTLHGMENIYRWHEEHYERLGLSNVEIHILIRKIHIQGDKVHIDGLLRLHFNGRDTEIHVRLHALKIDGKWQLTRVQHD` has protease stability score that meets 2 or exceeds it?
Response: NO

Request: Could you please find out whether `DEEYESMKIAVERLVQAHKTGDEDFLRELADPHVRVEIGDKRMHGWDRFDEWFKFVHHHLRIKDVDMKEFHIQGNKMHVRLELHGHYNGRDLILERHVILLKVNGRWILHVVQLG` has protease stability score that meets 2 or exceeds it?
Response: YES

Request: Could you please find out whether `DEEEDKLRKFADHFWHLRLTGDFDIWEHLADPDTKENQGEYSNIGREHISEYNLRETRKFKNIRMHIRRKTIQGDKIKIDGVLIFNGVEIEVILILIVINGRIREVRVHIE` has protease stability score that meets 2 or exceeds it?
Response: NO

Request: Could you please find out whether `ETEEQYAEELARLYIEIWETGDEETLHKLADPDVRNDVDGKQLHGRESMIEFWRKLGISNVHFILHRLHVKTQGDFIDIHIDGQLDINGKVTRVEHRLHVEKYNGRWLLKEIYIKRD` has protease stability score that meets 2 or exceeds it?
Response: NO

Request: Could you please find out whether `SEKEEELHRALRLWLHAWETGDFHTITKLLDPHARSDVNGVELHGREEISRHHRELRTHDMRIRDEKVHMQGDYLIIILHIHTDVQIGDKRIETDLLIIIIHVKVNGRWSLRSISLEFR` has protease stability score that meets 2 or exceeds it?
Response: NO

Request: Could you please find out whether `DDEREEAKRAIEDLVRDLETGNWKHLHEFLDPNVRIRVGDKDIHGREEATHHLRRLHEKFKNLKVIIEHVDIVGNKIIEHGHIEIGDKSMEVEIIIIKINGRWYIKEIHIK` has protease stability score that meets 2 or exceeds it?
Response: NO

Request: Could you please find out whether `SEEEEQVKEFIERWITMVKTGDEDFARKMADPNVRIEIGDKILHGRENMEHYMRRVIDEWRITHIHVNDSKVYGEYIVNEVHIHVRQGDKHHTINWELHVKKVNGRWRLQNVHFG` has protease stability score that meets 2 or exceeds it?
Response: YES

Request: Could you please find out whether `DEEDEESHRLMRETIHLLLTGDEEVWAQLADPDVRVLFNGVDYHGREEFLRIWHHMVKEIRVDKHEIKTIEVQGDKVLSDIRMHVEFNGKRTKVRVNLRLQSINGRTKYLSIHIH` has protease stability score that meets 2 or exceeds it?
Response: NO

Request: Could you please find out whether `TENKRDLDLLIKLHLYLHKTGDWERLFKLMDPHARLEVGDFHIHGREEVIRWFVELMERVKNMRFDLQDRKVEVQGEKVIVRSDVEVNIDGVVIRVYLEVDSIKVDGKWHLHSERIELR` has protease stability score that meets 2 or exceeds it?
Response: NO

Request: Could you please find out whether `DEDKHQLDEATKVWLELFLTGNEEELLKLADPDVRIEVDGKHFHGREVMLKLMQEWKHRLGINVDELKRTEIEVIDGKAHVHLDGELYIDGKTFRLDIEVVYEKIDGRWRLKKVRFDIR` has protease stability score that meets 2 or exceeds it?
Response: YES

Request: Could you please find out whether `SEDREFMKTDLERWRHDLLTGDEESSHRLADPHVRVYIGDKEFIGREELRRVLREFIERFKGARIEVRLRSLHLIDGRMHIDTEWHIHVGEKHIMLDIKINQDKVNGRWELRNEVIS` has protease stability score that meets 2 or exceeds it?
Response: NO

Request: Could you please find out whether `DEEERHVRELLREWIESLFTGDEHRLMELADPHARSHIDGVDLHGRENMHRMIHELRITDMRIRRISVRLVGDFVDVRVDGESDIYFNGQRLHTQIDIVIISSKIDGKWVIEEVHHNIE` has protease stability score that meets 2 or exceeds it?
Response: NO

Request: Could you please find out whether `SEEDRDLHESAKLSEEIEDTGDEHMIHKQADPNVRLDYNGREFHGREMFSKMMIEWFTKLGVDHVHRKEMRIQGDWIHLHFEVRVGDKRHEVHVVALKVNGRWLHHSFEVHER` has protease stability score that meets 2 or exceeds it?
Response: NO

Request: Could you please find out whether `SEEEKHAHEMVRIFLHILKTGDWRTLEKLLDPDVRMSLDINGREHHQVGREEVLKAFIRFLDEWRMDDLHLHDVTIQGDKAYLETEVHITFNGQRHHTHLEIEIYVINGKIKSIRLTIR` has protease stability score that meets 2 or exceeds it?
Response: YES

Request: Could you please find out whether `KEEEEEARQAWDLLHNIMKTGDEHQLMSLVDPNYLNIAEGREFHGREVFYHYMHELRVKWEHMHLKDYRVYNGRIRTEEHLVVHYEYGDKHDSLRTDVHLKDVKINGRWRVRHLHII` has protease stability score that meets 2 or exceeds it?
Response: NO

* * *

Assay: protease stability score; higher = more stable; yeast display proteolysis, trypsin and chymotrypsin;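 note: relative to predicted unfolded state with 0 unfolded-like and 1 meaning tenfold more protease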
Would you kindly list protease stability score for each of these sequences?
Respond using a number only.

Record `SEDEEFFKKALDLVFEYNRTGDERSMNELADPHVKVDINGVTLHGWEEFSRHLRELRLKTFKLDDLDSQGDKIITKGVFHHHINGRTIDLDVIIFTRKINGRWVLEKVEFK` . Reported protease stability score: 1.35

Record `DETTETLLRISESNIRNWETGDFDTIKQLLDPHVRMEQGDKTNHGRERVAKSWTEFLRELRLKTVHLHEVDVQGEKALSHVILFVKIGDKKIEVEAHLLVVVIDGKVSSIHITIK` . Reported protease stability score: -0.305

Record `HEEEEEIVRHLEKLLRDLWTGDWDDIEHNLDPNVRIEYGEKTRVGREKFVKTFFDMGMKLRHVRINEFHVVDGRLHVDTRIDGNFNGVEFRTRVEIIAVKINGKWVLHSVHIL` . Reported protease stability score: 1.22

Record `SEVHEQIEEIFREFMHMLLTGDWKRLTELADPHVRLEFDGREFHGREELVRRLLELGFKHQHLHDMRIHNFDGRVYMHTDTRVHVDGKHVIVRLELIVNKFNGQWYVHSLRIEVQ` . Reported protease stability score: 0.343

Record `SEQHEITEHIARIILEFLTTGDFTEFFKMLDPHVRITVGDKFNVGRHVFWHLWQELFDHIRIRHISLKHIHIVDGRLHLDTRVHGKVDGKETTLDQHIHIEIINGRITSVNLEYR` . Reported protease stability score: 2.12

Record `SEEEELTQELFERFHHVLRTGDWREMVHLADPNARNIFENRTIVGREDVSKILSELLQRVKGIRWHIESIHVQGDFLKLDYRMQVGDKSENVEIHYLKFNGKWILKSIRFE` . Reported protease stability score: 1.32

Record `DEDKEIAEHNLRLLSHSRLTGDEESMHKLMDPNAKIDFNGREIHGMEWIEWLKNQLRLKHVHTEFKDSRIINGRMEVDVNLRLHLSINGKEVDFIIDVELISQKVDGRWIVRSEIYR` . Reported protease stability score: 0.375

Record `DEDEELRRRRSEIVRKDWETGDWKSIEELADPHVKNHIGEYLAVGRENLVFVLEHFLKVLGVKHREIHSSELHIVNGRAEVHIDTRLVVNGRNIKTHVRFIFDKVNGRWVMHSVEFHVD` . Reported protease stability score: 1.25

Record `DEDEKNMHIAMEIYRESVETGNEKMHRHLLDPHARIRFDGQEFHGWKDAHRFMHHRTHEWRDHHIQLRDRDYIDGRVHIRVIIYGEFNGVRTTRDIEIHVEKIDGRWYFTNLIFG` . Reported protease stability score: 0.285

Record `SEIDEFSEKAFRLLLETLQTGDWRLTSELVDPNVRVHFEGHEHVGMEEVSKVVRHWRVKRIELKHLEVIGEKMHMILHQDIEVNGQRVRTDMIVTADKIDGVWLLTEVRIK` . Reported protease stability score: 1.59

Record `SEEDEELREMARLIILLEWTGDEETFEHLADPHVRSHINGVHLHGRETVSKWLMHVREHLRFNDIRIRDLWVFNGKVKINGEYDGHVNGRRIRYTVHLYFVIIDGRIREISREHR` . Reported protease stability score: 0.301

Record `DEETELDERVIKLLIEALKTGDEHLKERMMDPRVRFLIDGVDLIGREWAFHIARHWRIHIHHIEHKSISRQGDYLRVNGKEDGVEEFDGRRVEKEVSSHRLILKIDGRWVLTHVELR` . Reported protease stability score: 1.28

Record `SELDENVKRITDIFIHAILTGDEHKIRKLLDPHVRTVVDGVEYIGREWFAEWVKHMRIDDHRIKTIEIRNQGDYAHVHIHGRTLGEYDGKHSTVNMFIHMHFVKFDGKWFVHELNVHII` . Reported protease stability score: 2.06

Record `DEDERVMRTLLELLLRSHNTGDEDSYKQLLDPDTRVHVDGVDFHGMEFARTLARHWRVKHVELKDVRSQGNKIEADIHTVGVINGQELRTETHIITEKVNGRWVLHSISIR` . Reported protease stability score: 1.46

Record `DEEEEIMRKIIEDLRHNTETGDEELMQDLMDPHARIDIDGQKLHGREYVRFLHDEFKGATWIWREVRLQGDKLDVHVEVRFDGRTLHVDIHYVIVNGRTKEIRVHWD` . Reported protease stability score: 1.28

Record `DHQERHLREFAHEVEEAWHTGDWKDMFRLFDPNTRVDFHFENHDLHLHGRESMVRFIRDFLDKFKNIRLQLTSRDRQGDKVHLTEEFHINGRIMVIHVNFDIVNGKWKRLELDFIDT` . Reported protease stability score: 1.25

Record `TELDELALKLLEQLIELEATGDWKTLLKLFDPNTRVDIEVGDKKIRLHGREDVIEWVKTVYEHLRFEIRIHSSDAIDGRVHVSTKLIIRIDGRTIEVETHLRVIMIDGKIHEVNTHVH` . Reported protease stability score: 1.43

Record `DEDTELLKHHLDIFRDAVRTGDEEKERKYADPDDRINVDGVIFHGWEESKRFYEHWRVKDFHVHDMKVQGDKADVESRLVVQINGREVIFRVKLIITKVNGRWKHTMLEIK` . Reported protease stability score: 1.62

Record `DRHEETDRRAVKILLEVIRTGDFETFYRLMDPHARYEYGEKELHGRDKSLKLLEELLRRFGHDKVEVHLKTYSAIDGRMEIHSVVNYNGREHNLHIESDKVNGRWEIRDIHVL` . Reported protease stability score: 1.09

Record `DEEDEQAKELSRIMMEVLRTGDEDMFTKLLDPNVRLEIGEKEDHGRERAMHWLIRFLYRIPNARFIWRDVDVHRINGRVLDTSDLQVRINGRDFKTFVITHIVKIDGRWRVTKLEVHIE` . Reported protease stability score: 1.56

Record `REEEEEAKRFLDIITRSILTGDEDSLSELFDPNTQLHYGDKRFVGRERINEVVKQWRIEDVNLHDVEVQGEWAILDTRVDGNFNGKKRNLETRIITEKVNGRWILKRVEIE` . Reported protease stability score: 1.35

Record `RELDEMAERAVEWYFRVLRTGDEHTLSRLLDPNVRVVFDGRTYIGREWYREHEEKLGVDHMRLDVKSVRNINGRIEVDVRVNREVNGQEIRIEMRMTSEKVDGRWEVKTVEEK` . Reported protease stability score: 1.3
